Taken from patent US20230043863A1.

test: Balb/C mouse pharmacokinetics (plasma, colon, ileum); format: in vivo; details: male, po, Balb/C mice, p.o. 5 mg/kg, colon, read-out: Blood concentration Cmax
Give measured Cmax for each item. Keep answers brief.
Form entry: value (ng/mL) — number only.

q: # lookup: Cmax of Cc1cnc(Nc2cc3ncccc3c(N[C@@H]3C[C@H]4CC[C@@H](C3)N4CCC#N)n2)s1
a: 2720

q: Likewise for Cc1cc(Nc2nc(N[C@@H]3C[C@H]4CC[C@@H](C3)N4CCC#N)nc3ccsc23)n[nH]1 ?
a: 2310

q: Likewise for Cc1cc(Nc2nc(N[C@@H]3C[C@H]4CC[C@@H](C3)N4CCC#N)nc3cc(N4CCOCC4)ccc23)n[nH]1 ?
a: 3350

q: Likewise for Cc1cc(Nc2nc(N[C@@H]3C[C@H]4CC[C@@H](C3)N4CCC#N)nc3c2cnn3C)n[nH]1 ?
a: 1030
